- assay.protocol: pKa (66% DMF)
- Type: physicochemical
- run.conditions: third value listed
quantity: pKa
Lab note: jot the number down without any unit.

For orientation, consider the following solved cases.
{"columns": ["compound", "test.value"],
 "data": [
  ["CC[C@]1(O)C[C@@H]2CN(CCc3c([nH]c4ccccc34)[C@@](C(=O)OC)(c3cc4c(cc3OC)N(C)[C@H]3[C@@](O)(C(=O)NN=C(C)CCCC(=O)O)[C@H](O)[C@]5(CC)C=CCN6CC[C@]43[C@@H]65)C2)C1", 7.7],
  ["CC[C@]1(O)C[C@@H]2CN(CCc3c([nH]c4ccccc34)[C@@](C(=O)OC)(c3cc4c(cc3OC)N(C)[C@H]3[C@@](O)(C(=O)NNC(C)CCC(=O)O)[C@H](O)[C@]5(CC)C=CCN6CC[C@]43[C@@H]65)C2)C1 (stereo partly drawn)", 7.9]
]}

Consider the record given below.
What value of pKa has been reported for the following compound? CC[C@]1(O)C[C@@H]2CN(CCc3c([nH]c4ccccc34)[C@@](C(=O)OC)(c3cc4c(cc3OC)N(C)[C@H]3[C@@](O)(C(=O)NN=C(C)CCCCC(=O)O)[C@H](O)[C@]5(CC)C=CCN6CC[C@]43[C@@H]65)C2)C1
8.1
